The measurements presented in this section are drawn from the supplement of paper PMC10567573.

assay-summary: protein stability index of a GFP-peptide fusion (GPS, HEK-293T) (PSI 1-6); higher = more stable;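 also: 24-mer peptide tiles fused after GFP, lentivirally expressed, FACS-sorted into six equal bins by GFP/DsRed ratio, decoded by Illumina sequencing, PSI is the read-weighted mean bin number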
conditions-used: treatment: DMSO; c terminus: a fixed tail appended
Response key: label 1 means protein stability index >= 3; label 0 means protein stability index < 3.

[[record]]
seq_text = "CAERLQSEEQVSKNLFGPPLESAF [FCHO1]"
classification = "label 1"

[[record]]
seq_text = "EVLLDHLKAHAEEKPPSGTKEKKH [PLAGL1]"
classification = "label 1"

[[record]]
seq_text = "LVVLRFLTMNSEDERRDAEERASL [KCNK9]"
classification = "label 0"

[[record]]
seq_text = "CVADNTNLYVFGGYNPDYDESGGP [KLHDC10]"
classification = "label 1"


# input for lookup
Answer whether protein stability index of MQNLNDRLASYLDKVRALEEANAD [KRT15] is greater than or equal to 3.
label 1
